- MEASUREMENT_DESCRIPTION: yeast display, Sf9 membrane polyspecificity reagent, FACS + sequencing; frameworks hold sequencing errors
RECORDED_METRIC: polyreactivity (PSR sort gate)

# input Entry QVQLVESGGGLVQAGGSLRLSCAASGSIFKIYAMGWYRQAPGKERELVAAITINGGSTYYADSVKGRFTISRDNAKNTVYLQMNSLKPEDTAVYYCAASADWWYEYWGQGTQVNVSS needs its polyreactivity (PSR sort gate) filled in; supply it.
# output low polyreactivity

# input Give the reported value of polyreactivity (PSR sort gate) for this record: QVQLVESGGGLVQAGGSLRLSCAASGRTFFGYAMGWYRQAPGKEREFVAAISGSGGSTYYADSVKGRFTISRDNAKNTVYLQMNSLKPEDTAVYYCNGDYWGEYYYWGQGTQVSVSS
# output low polyreactivity

----------
- MEASUREMENT_DESCRIPTION: yeast display, Sf9 membrane polyspecificity reagent, FACS + sequencing; frameworks hold sequencing errors
RECORDED_METRIC: polyreactivity (PSR sort gate)

# annotated cases, reported polyreactivity (PSR sort gate) shown
# input Give the value of polyreactivity (PSR sort gate) reported for the following: QVQLVESGGGLVQAGGSLRLSCAASGRTFVPYAMGWYRQAPGKERELVASITRSGGRTYYADSVKGRFTISRDNAKNTVYLQMNSLKPEDTAVYYCAVDWSVYYRTYDYWGQGTQVTVSS
# output high polyreactivity

# input Please indicate polyreactivity (PSR sort gate) recorded for QFQLVESGVGLVQAGGSLRFSCAASGRIFMPNAMGWYRQSPGKEREFVASISWSGGSTYYADSVKGRFTISRDNAKTTDYLQMNSLKPEDTAVYYCNARYGKRYYYWGQGTQVTVSS
# output low polyreactivity

# input Report polyreactivity (PSR sort gate) for QVQLVESGGGLVQAGGSLRLSCGASGITFVYYTMGWYRQAPGKERELVAAISKNGGSTYYADSVKGRFTISRDNAKNTVYLQMNSLKPEYTAFSYCAAEEGYRWVRYNYWGQGTQVTVSS
# output high polyreactivity

# input # return recorded polyreactivity (PSR sort gate) for entry QVQLVESGGGLVQAGGSLRLSCAASGRTFKYYAMGWYRQAPGKERELVAAISRGGSTNYADSVKGRFTISRDNAKNTVYLQVNSLKPEDTAVYYCARRYIVQSGDDYWGQGTQVTVSS
# output low polyreactivity

# input Note down polyreactivity (PSR sort gate) recorded for QVQLVESGGGLVQAGGSISLSCAASGFIFDDNAMGCYRQAPGKERELVAAISQGAGRTYYADSVKGRFTISRDNAKNTVYLQMNSVKPEDTAVYYCNSGRPKYWYGSKYDYWGQGTQVTVSS
# output low polyreactivity

I have 2 sequences here; please give me polyreactivity (PSR sort gate) for each one.
1. QVQLEESGGGLVQAGGSLRLSCAASGITLGYYAMGWYRPAPGKERELVAAITWSGTSTYYADSVKGRFTISRDNAKNTVYLQMNSLKPEDTADYYCAAGFISQYQERGYWGQGTQVTVSS
2. QVQLVESGGGLVQAGGSLRLSCAASGSIFQRYAMGWYRQAPGKEREFVAAISGRGGSTYYADSVKGRFTISRDNAKNTVYLQMNSLKPEDTAVYSCAADSSRFYGRPRYYYWGQGTQVTVSS

# output
1. low polyreactivity
2. high polyreactivity

Each sequence below has a reported value. Please supply its polyreactivity (PSR sort gate).
1. QVQLQESGGGLVQAGGSLRLICAASGYISSWYPMGWYRQAPGKEREFVGTIAPGATTYYADSVKGRFTIIRDYEKNTVYLQMNSLKPEDTAVYYCAAGPENNDFYSYWGQGTQVTVSS
2. QVQLVESGGGLVQAGGSLRLSCAASGRIFFNYAMGWYRQAPGKERELVAAIRGGGSTYADSVKGRFTISRDNAKNTVYLQMNSLKPEDTAVYYCAARYSGSPYHTRRYYYWGQGTQVTVSS
3. QVQLVESGGGLVQAGGSLRLSCAASGSTFRRYAMGWYRQAPGKERELVADISSGGSTYYADSVKGRFTISRDNAKNTVYLQMNSLKPEDTAVYYCNAKTFYYGSRFRRAEYDYWGQGTQVTLSS
4. QVQLVESGGGLVQAGGSLRLSCAASGRTFIIYTMGWYRQAPGKEREFVAAITRSGGGTYYADSVKGRFTISRDNAKNTVYLQMNSLKPEDTAVYYFAADRFYDQAYDYWGQGTQVTVSS

# output
1. low polyreactivity
2. high polyreactivity
3. low polyreactivity
4. low polyreactivity
